# Test system: MDA-MB-231
# PROTOCOL_TEXT: Growth of human MDA-MB-231 cells at 0.1 uM after 48 hrs by SRB assay
# SETUP_CONDITIONS: MDA-MB-231, 48 h
PROPERTY_LABEL: growth, % of control at 0.1 µM (%)

{"SMILES_INPUT": "CCCCCCCCCCCCCCS(=O)(=O)N(C)CC[N+](C)(C)C", "PROPERTY_LABEL": "growth, % of control at 0.1 µM", "VALUE_UNITS": "%", "RECORDED_RESULT": 99.1}
{"SMILES_INPUT": "CCCCCCCCCCCCCCCCS(=O)(=O)NCC(C)(C)C[N+](C)(C)CC", "PROPERTY_LABEL": "growth, % of control at 0.1 µM", "VALUE_UNITS": "%", "RECORDED_RESULT": 108}
{"SMILES_INPUT": "CCCCCCCCCCCCCCS(=O)(=O)NCC(C)(C)C[N+](C)(C)C", "PROPERTY_LABEL": "growth, % of control at 0.1 µM", "VALUE_UNITS": "%", "RECORDED_RESULT": 94.3}
{"SMILES_INPUT": "CCCCCCCCCCCCCCCCS(=O)(=O)N(C)CC[N+](C)(C)CC", "PROPERTY_LABEL": "growth, % of control at 0.1 µM", "VALUE_UNITS": "%", "RECORDED_RESULT": 75.8}
{"SMILES_INPUT": "CCCCCCCCCCCCCCCCS(=O)(=O)N(C)CC[N+](C)(C)C", "PROPERTY_LABEL": "growth, % of control at 0.1 µM", "VALUE_UNITS": "%", "RECORDED_RESULT": 98.2}
{"SMILES_INPUT": "C=CC[N+](CC)(CC)CCN(C)S(=O)(=O)CCCCCCCCCCCCCC", "PROPERTY_LABEL": "growth, % of control at 0.1 µM", "VALUE_UNITS": "%", "RECORDED_RESULT": 89.6}
{"SMILES_INPUT": "CCCCCCCCCCCCCCS(=O)(=O)NCCC[N+](C)(C)CC", "PROPERTY_LABEL": "growth, % of control at 0.1 µM", "VALUE_UNITS": "%", "RECORDED_RESULT": 83.1}
{"SMILES_INPUT": "C=CC[N+](C)(C)CCN(C)S(=O)(=O)CCCCCCCCCCCCCC", "PROPERTY_LABEL": "growth, % of control at 0.1 µM", "VALUE_UNITS": "%", "RECORDED_RESULT": 88}
{"SMILES_INPUT": "CCCCCCCCCCCCCCCCS(=O)(=O)N(C)CC[N+](CC)(CC)CC", "PROPERTY_LABEL": "growth, % of control at 0.1 µM", "VALUE_UNITS": "%", "RECORDED_RESULT": 87.3}
{"SMILES_INPUT": "CCCCCCCCCCCCCCCCS(=O)(=O)NCC(C)(C)C[N+](C)(C)C", "PROPERTY_LABEL": "growth, % of control at 0.1 µM", "VALUE_UNITS": "%", "RECORDED_RESULT": 95.6}
{"SMILES_INPUT": "C=CC[N+](CC)(CC)CCN(C)S(=O)(=O)CCCCCCCCCCCCCCCC", "PROPERTY_LABEL": "growth, % of control at 0.1 µM", "VALUE_UNITS": "%", "RECORDED_RESULT": 94.8}
{"SMILES_INPUT": "CCCCCCCCCCCCCCCCS(=O)(=O)N(C)CCC[N+](C)(C)CC", "PROPERTY_LABEL": "growth, % of control at 0.1 µM", "VALUE_UNITS": "%", "RECORDED_RESULT": 94.8}
{"SMILES_INPUT": "CCCCCCCCCCCCCCS(=O)(=O)N(C)CC[N+](CC)(CC)CC", "PROPERTY_LABEL": "growth, % of control at 0.1 µM", "VALUE_UNITS": "%", "RECORDED_RESULT": 96.4}
{"SMILES_INPUT": "CCCCCCCCCCCCCCCCS(=O)(=O)NCCC[N+](C)(C)CC", "PROPERTY_LABEL": "growth, % of control at 0.1 µM", "VALUE_UNITS": "%", "RECORDED_RESULT": 72.6}
{"SMILES_INPUT": "CCCCCCCCCCCCCCS(=O)(=O)NCC(C)(C)C[N+](C)(C)CC", "PROPERTY_LABEL": "growth, % of control at 0.1 µM", "VALUE_UNITS": "%", "RECORDED_RESULT": 91.2}
{"SMILES_INPUT": "CCCCCCCCCCCCCCS(=O)(=O)NCCC[N+](C)(C)C", "PROPERTY_LABEL": "growth, % of control at 0.1 µM", "VALUE_UNITS": "%", "RECORDED_RESULT": 84.6}
{"SMILES_INPUT": "CCCCCCCCCCCCCCS(=O)(=O)N(C)CC[N+](C)(CC)CC", "PROPERTY_LABEL": "growth, % of control at 0.1 µM", "VALUE_UNITS": "%", "RECORDED_RESULT": 103}
{"SMILES_INPUT": "CCCCCCCCCCCCCCCCS(=O)(=O)N(C)CCC[N+](C)(C)C", "PROPERTY_LABEL": "growth, % of control at 0.1 µM", "VALUE_UNITS": "%", "RECORDED_RESULT": 97.6}

These measurements were taken from ChEMBL document CHEMBL2434921.
